tested on: DU-145 prostate
quantity_kind: GI50

{"smiles_notation": "Cn1ncc2c(/N=C/c3cccs3)[nH]c(=S)nc21", "GI50": "25.6 µM"}
{"smiles_notation": "COc1cc(/C=C/C(=O)c2ccc(Nc3ncnc4ccccc34)cc2)cc(OC)c1", "GI50": "6.71 µM"}

Which measured GI50 value corresponds to O=C(Nc1nccs1)c1cc2c(cc1Cl)Sc1nccn1S2(=O)=O ?
16.3 µM

Which measured GI50 value corresponds to CN(C)CCCN(c1nc(C(Cl)(Cl)Cl)ns1)c1nc(C(Cl)(Cl)Cl)ns1 ?
2.75 µM

Which measured GI50 value corresponds to COc1ccc(N(CC(=O)NCCC[Te]c2ccccc2)C(=O)CCSC2=C(C)C(=O)c3ccccc3C2=O)cc1 ?
1.44 µM

----------
# key: entry, value: GI50
tested on: OVCAR-8 ovarian

Which measured GI50 value corresponds to COc1ccc(/C(C)=C(\c2ccc(Cl)cc2)c2ccc(OCCN3CCCC3)cc2)cc1F ?
4.22 µM

Which measured GI50 value corresponds to O=C(O)c1ccc2c(c1Nc1ccccc1)C(=O)c1ccccc1C2=O ?
72.6 µM

Which measured GI50 value corresponds to COc1ccc(N(CC(=O)NCCC[Te]c2ccccc2)C(=O)CCSC2=C(C)C(=O)c3ccccc3C2=O)cc1 ?
0.722 µM

Which measured GI50 value corresponds to O=C(O)C1NCCc2c1[nH]c1ccccc21 (stereo not given) ?
> 100 µM

Which measured GI50 value corresponds to COC(=O)C(C)NP(=O)(OCc1ccc(Cn2cnc3c(=O)[nH]c(N)nc32)cc1)Oc1ccccc1 (stereo not given) ?
> 100 µM

----------
system: RXF 393 renal
Outcome (select one): yes (1) for active, no (0) for inactive

{"smiles_notation": "COc1ccc(-c2cnc3ccnn3c2-c2cc(OC)c(OC)c(OC)c2)cc1", "qualitative_label": "no (0)"}
{"smiles_notation": "COc1cc(/C=C2\\CN(C)C/C(=C\\c3cc(OC)c(OC)c(OC)c3)C2=O)cc(OC)c1OC", "qualitative_label": "yes (1)"}
{"smiles_notation": "C=C1C(=O)O[C@H]2[C@H]1CC/C(Cn1cc(Cn3ccc4ccccc43)nn1)=C\\CC[C@@]1(C)O[C@@H]21", "qualitative_label": "no (0)"}
{"smiles_notation": "CN[C@]12CC3(C=CC(=O)C=C3)O[C@@]1(Cc1ccc(OC)cc1)N(C)C(=O)N2", "qualitative_label": "no (0)"}
{"smiles_notation": "CCCCCCCC/C=C/CCCCCCCC1=NC(C)(C)CN1C(C)C", "qualitative_label": "no (0)"}
{"smiles_notation": "CN1CCC[C@@H]1CCO[C@](C)(c1ccccc1)c1ccc(Cl)cc1", "qualitative_label": "no (0)"}
{"smiles_notation": "O=C(Nc1nccs1)c1cc2c(cc1Cl)Sc1nccn1S2(=O)=O", "qualitative_label": "no (0)"}
{"smiles_notation": "Clc1cc(Cl)c(Cl)c(-c2nc(-c3cccnc3)cs2)c1", "qualitative_label": "no (0)"}

Now for another entry.
Returns: the outcome recorded for CC(=O)O[C@H]1C(=O)O[C@@H]2C[C@H]3C(C)=CC(=O)[C@@H](O)[C@]3(C)[C@H]3[C@@]4(O)OC[C@]32[C@@H]1[C@@H](C)[C@H]4O in this assay.
yes (1)

----------
# key: entry, value: TGI
test system: CAKI-1 renal; assay: NCI tumour cell line growth inhibition, 48 h

// worked examples, TGI included
{"molecule": "NC(=O)N/N=C(\\C(=O)C(=O)Nc1ccc(Cl)c(C(F)(F)F)c1)c1nc2ccc(C(=O)c3ccccc3)cc2[nH]c1=O", "value_observed": "> 100 µM"}
{"molecule": "Cc1cn(C2CC(O)C(Cn3cc(Cn4ncc(=O)[nH]c4=O)nn3)O2)c(=O)[nH]c1=O (stereo unspecified)", "value_observed": "> 100 µM"}
{"molecule": "Nc1ccccc1N/C(=C\\C(=O)C(Cl)(Cl)Cl)c1ccccc1", "value_observed": "> 100 µM"}

Which measured TGI value corresponds to NS(=O)(=O)c1ccc(NNc2c3ccccc3nc3ccccc23)cc1 ?
18.9 µM

Which measured TGI value corresponds to Cn1c(=O)c2c(no[n+]2[O-])n(C)c1=O ?
35.2 µM

Which measured TGI value corresponds to CC(=O)OC1CC(O)CC2=CCC3C4CCC(C(C)(O)C(O)CC5COC(=O)C5C)C4(C)CCC3C21C (stereo unspecified) ?
> 25 µM

Which measured TGI value corresponds to CCC1=C(C)/C(=C/c2[nH]c(CBr)c(CC)c2C)N=C1CBr ?
25.8 µM

Which measured TGI value corresponds to CCOC(=O)C(NC(=O)c1ccccc1)(Nc1ccc(S(=O)(=O)Nc2nc(C)cc(C)n2)cc1)C(F)(F)F (stereo unspecified) ?
> 100 µM

Which measured TGI value corresponds to COC(=O)[C@@H]1C[C@H]([Se]c2ccccc2)CN1S(=O)(=O)c1ccc(C)cc1 ?
> 100 µM

Which measured TGI value corresponds to CN(C)CCCN(c1nc(C(Cl)(Cl)Cl)ns1)c1nc(C(Cl)(Cl)Cl)ns1 ?
18.5 µM

Which measured TGI value corresponds to COC(=O)c1ccc(N=NN(C)COc2ccc(C#N)cc2)cc1 ?
> 100 µM

Which measured TGI value corresponds to C=C1C(=O)O[C@H]2[C@H]1CC/C(Cn1cc(Cn3ccc4ccccc43)nn1)=C\CC[C@@]1(C)O[C@@H]21 ?
2.38 µM

Which measured TGI value corresponds to O=C(Nc1n[nH]c2nc(-c3ccco3)ccc12)C1CC1 ?
> 25 µM

Which measured TGI value corresponds to CC1(C)C(O)C[C@]23CCC[C@](C)(C[C@@H](O)C12)C3 (stereo partly specified) ?
> 100 µM

Which measured TGI value corresponds to COc1ccc(-c2c(C#N)c(-c3ccc(C)cc3)n(NS(=O)(=O)c3ccccc3)c(=O)c2C#N)cc1 ?
> 100 µM

Which measured TGI value corresponds to c1cc(OCCN2CCCCCC2)ccc1CNc1ccc2nc(CCC3CCCCC3)[nH]c2c1 ?
4.05 µM

Which measured TGI value corresponds to ClC1CCC2OOC1O2 (stereo unspecified) ?
> 100 µM

Which measured TGI value corresponds to Cn1c(=O)[nH]c2[nH]c3ccccc3c2c1=O ?
> 100 µM

Which measured TGI value corresponds to CC(C)OCC(O)COc1ccc2ccc(=O)oc2c1 (stereo unspecified) ?
> 100 µM

Which measured TGI value corresponds to COC1C=CC(C(=O)[N+]2=Cc3[nH]c4ccccc4c3CC2)O1 (stereo unspecified) ?
> 100 µM

Which measured TGI value corresponds to CN(C)C(=O)/N=c1\ss/c(=N\C(=S)N(C)C)n1-c1ccccc1 ?
> 100 µM

----------
system: SNB-75 CNS; test: NCI tumour cell line growth inhibition, 48 h
quantity_kind: TGI

// worked examples, TGI included
{"molecule": "NC1CC(=O)c2c(Cl)sc(Cl)c21 (stereo not given)", "TGI": "26.1 µM"}
{"molecule": "CC(=O)N(C)c1ccc2c(ccc[n+]2[O-])c1[N+](=O)[O-]", "TGI": "> 100 µM"}
{"molecule": "Oc1c2cc(Br)cc1CCc1cc(Br)cc(c1O)CC2", "TGI": "88.3 µM"}
{"molecule": "COc1ccc2c(c1)CCc1c(-c3noc4c3CCc3cc(OC)ccc3-4)noc1-2", "TGI": "> 100 µM"}

Which measured TGI value corresponds to Nc1ncnc(NC2C=C(CO)C(O)C2O)c1[N+](=O)[O-] (stereo not given) ?
> 100 µM

Which measured TGI value corresponds to Cc1cccc(N=Nc2c(C)nn(C(=O)CC(=O)Nc3ccccc3)c2C)c1 ?
> 100 µM

Which measured TGI value corresponds to CN1CCC[C@@H]1CCO[C@](C)(c1ccccc1)c1ccc(Cl)cc1 ?
12.7 µM

Which measured TGI value corresponds to COc1cc(/C=C2\CN(C)C/C(=C\c3cc(OC)c(OC)c(OC)c3)C2=O)cc(OC)c1OC ?
2.48 µM

Which measured TGI value corresponds to COC(=O)CCC(NC(=O)C(C)NC(=O)COC1C(O)C(OC(=O)CCNc2c3ccccc3nc3cccc([N+](=O)[O-])c23)OC(OCc2ccccc2)C1NC(C)=O)C(N)=O (stereo not given) ?
> 10 µM

Which measured TGI value corresponds to CC1(C)OC(C(N)=O)=C(C(N)=O)O1 ?
> 100 µM

----------
# key: entry, value: TGI
tested on: SK-MEL-28 melanoma; assay: NCI tumour cell line growth inhibition, 48 h

{"molecule": "COc1ccc(/C=C(\\C#N)c2nc(N)nc(N3N=C(C)CC3(C)C)n2)c(O)c1", "measurement_target": "SK-MEL-28 melanoma", "TGI": "29.6 µM"}
{"molecule": "NS(=O)(=O)c1ccc(NNc2c3ccccc3nc3ccccc23)cc1", "measurement_target": "SK-MEL-28 melanoma", "TGI": "17.1 µM"}
{"molecule": "CC(=O)Nc1ccc(C(=O)NN2C(=O)C(Cl)C2c2cc(Br)ccc2O)cc1 (stereo unspecified)", "measurement_target": "SK-MEL-28 melanoma", "TGI": "> 100 µM"}
{"molecule": "O=S(=O)(O)c1cccc2c(N=Nc3c(O)ccc4ccccc34)cccc12", "measurement_target": "SK-MEL-28 melanoma", "TGI": "> 100 µM"}
{"molecule": "O=C1CC(CC(O)C(O)C(O)CO)CC(=O)N1 (stereo unspecified)", "measurement_target": "SK-MEL-28 melanoma", "TGI": "> 100 µM"}
{"molecule": "Cc1ccc([N+](=O)[O-])cc1NC(=O)C(=O)Cc1occc(=O)c1O", "measurement_target": "SK-MEL-28 melanoma", "TGI": "> 100 µM"}

Which measured TGI value corresponds to NC(CNO)C(=O)O (stereo unspecified) ?
> 100 µM

Which measured TGI value corresponds to COc1ccc2c(c1)CCc1c(-c3noc4c3CCc3cc(OC)ccc3-4)noc1-2 ?
> 100 µM

Which measured TGI value corresponds to CN1C2CCC1C(C(O)c1ccccc1[N+](=O)[O-])C(=O)C2 (stereo unspecified) ?
> 100 µM

Which measured TGI value corresponds to CC(NC(=O)C(N)Cc1ccc(O)cn1)C(=O)O (stereo unspecified) ?
> 100 µM

Which measured TGI value corresponds to CCOC(=O)C(NC(=O)c1ccccc1)(Nc1ccc(S(=O)(=O)Nc2nc(C)cc(C)n2)cc1)C(F)(F)F (stereo unspecified) ?
> 100 µM
